conditions: in chloroform, 283 K
observed property: solubility (mole fraction)

{"record smiles": "c1ccc2c(c1)Cc1ccccc1-2", "observed measurement": 0.0893}

###

details: in benzene, 298 K
observed property: solubility (mole fraction)

{"record smiles": "c1ccc2c(c1)Cc1ccccc1-2", "observed property": "solubility (mole fraction)", "observed measurement": 0.126}

###

settings: in toluene, 293 K

{"record smiles": "c1ccc2c(c1)Cc1ccccc1-2", "solubility (mole fraction)": 0.0967}

###

settings: in acetone, 318 K
observed property: solubility (mole fraction)

{"record smiles": "c1ccc2c(c1)Cc1ccccc1-2", "observed property": "solubility (mole fraction)", "observed measurement": 0.12}
